- targetEntity: DLL3 endogenously expressed on NCI-H82 cells (UniProt Q9NYJ7)
- Sequence (Q9NYJ7 27-618): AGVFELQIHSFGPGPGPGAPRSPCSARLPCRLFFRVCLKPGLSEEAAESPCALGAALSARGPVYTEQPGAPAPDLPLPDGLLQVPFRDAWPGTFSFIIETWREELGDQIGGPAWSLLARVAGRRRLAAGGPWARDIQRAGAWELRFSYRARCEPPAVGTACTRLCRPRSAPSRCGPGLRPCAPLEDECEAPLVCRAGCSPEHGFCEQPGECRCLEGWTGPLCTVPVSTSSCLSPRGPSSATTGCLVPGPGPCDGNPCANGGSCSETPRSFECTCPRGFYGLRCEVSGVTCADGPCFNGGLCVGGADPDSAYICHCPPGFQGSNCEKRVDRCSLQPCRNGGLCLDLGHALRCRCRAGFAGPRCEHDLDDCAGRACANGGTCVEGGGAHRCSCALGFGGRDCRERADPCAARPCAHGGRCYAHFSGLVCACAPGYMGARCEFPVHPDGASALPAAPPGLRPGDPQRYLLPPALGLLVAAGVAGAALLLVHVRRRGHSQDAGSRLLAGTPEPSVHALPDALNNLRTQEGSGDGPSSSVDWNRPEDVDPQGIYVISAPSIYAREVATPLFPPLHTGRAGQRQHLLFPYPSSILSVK
- protocolDetails: FACS on NCI-H82 cells; antibody 20 nM
I'd be grateful if you could share measured MFI for these entries.
Answer with a number only.

Task item: Give MFI for the following binder: mab015 scFv-hFc (Fc fusion, part only; not given: linker and human IgG1 Fc, not shown: a dimerising Fc or GST) chain, part: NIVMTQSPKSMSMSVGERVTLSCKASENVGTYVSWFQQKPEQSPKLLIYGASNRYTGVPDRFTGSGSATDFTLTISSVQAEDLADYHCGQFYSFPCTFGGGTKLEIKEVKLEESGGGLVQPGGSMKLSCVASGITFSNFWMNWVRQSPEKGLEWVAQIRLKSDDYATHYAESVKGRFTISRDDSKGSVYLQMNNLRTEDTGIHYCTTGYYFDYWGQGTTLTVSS
Reply: 1360

Task item: Give MFI for the following binder: Hab015VL5VH1b-hFc (scFv, part only; not given: VL-VH linker and human IgG1 Fc, V domains shown, not shown: another chain or arm of the molecule; a dimerising Fc or GST; small tags and cut ends) VL: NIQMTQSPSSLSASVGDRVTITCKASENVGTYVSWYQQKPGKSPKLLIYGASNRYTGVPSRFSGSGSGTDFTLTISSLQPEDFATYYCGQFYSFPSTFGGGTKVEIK VH: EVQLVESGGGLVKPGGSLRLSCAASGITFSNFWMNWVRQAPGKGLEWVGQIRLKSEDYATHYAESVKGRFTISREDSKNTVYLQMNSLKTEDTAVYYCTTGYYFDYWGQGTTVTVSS
Reply: 838

Task item: Give MFI for the following binder: Hab008L1H5-hFc (scFv, part only; not given: VL-VH linker and human IgG1 Fc, V domains shown, not shown: another chain or arm of the molecule; a dimerising Fc or GST; small tags and cut ends) VL: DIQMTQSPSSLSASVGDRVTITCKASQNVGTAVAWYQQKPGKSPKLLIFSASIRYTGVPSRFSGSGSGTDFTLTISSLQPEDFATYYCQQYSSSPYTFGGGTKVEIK VH: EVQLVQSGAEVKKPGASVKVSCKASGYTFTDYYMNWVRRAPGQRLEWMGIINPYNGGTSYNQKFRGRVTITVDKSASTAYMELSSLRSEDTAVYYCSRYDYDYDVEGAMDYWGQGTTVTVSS
Reply: 1020

Task item: Give MFI for the following binder: BI3 (antibody, human IgG1, kappa, V domains shown) VH: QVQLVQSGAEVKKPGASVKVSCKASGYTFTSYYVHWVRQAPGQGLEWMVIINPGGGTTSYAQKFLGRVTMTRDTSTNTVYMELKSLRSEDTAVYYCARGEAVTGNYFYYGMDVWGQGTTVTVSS VL: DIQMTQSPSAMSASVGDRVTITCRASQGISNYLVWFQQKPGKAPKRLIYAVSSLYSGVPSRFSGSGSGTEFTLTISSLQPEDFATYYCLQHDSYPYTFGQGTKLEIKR
Reply: 882

Task item: Give MFI for the following binder: Hab015VL5VH5a-hFc (scFv, part only; not given: scFv linker and human IgG1 Fc, V domains shown, not shown: another chain or arm of the molecule; a dimerising Fc or GST; small tags and cut ends) VL: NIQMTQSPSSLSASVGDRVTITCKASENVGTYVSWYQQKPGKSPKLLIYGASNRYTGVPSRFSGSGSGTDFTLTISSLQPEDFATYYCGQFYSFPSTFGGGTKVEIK VH: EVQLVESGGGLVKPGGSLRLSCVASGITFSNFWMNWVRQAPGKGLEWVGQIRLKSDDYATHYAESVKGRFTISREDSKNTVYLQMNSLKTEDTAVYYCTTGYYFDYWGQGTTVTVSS
Reply: 929
